All figures here come from ChEMBL document CHEMBL3272006.

# Organism: Bos taurus
# Method Summary: Ratio of Ka for cAMP to Ka for compound for bovine brain protein kinase in presence of 0.5 nmol [32P]ATP-gamma by liquid scintillation spectrometer
Listing of entries alongside the reported Ratio.
// print number alone

Sample records with Ratio:
Nc1c2ncn([C@@H]3O[C@@H]4COP(=O)(O)O[C@H]4[C@H]3O)c2nc[n+]1[O-]
0.45
CCCCc1nc(N)c2nc(SCc3ccccc3)n([C@@H]3O[C@@H]4COP(=O)(O)O[C@H]4[C@H]3O)c2n1
1.1
Cn1cnc2c(nc(SCc3ccccc3)n2[C@@H]2O[C@@H]3COP(=O)(O)O[C@H]3[C@H]2O)c1=N
1.3
CCCCc1nc(N)c2nc(Sc3ccc(Cl)cc3)n([C@@H]3O[C@@H]4COP(=O)(O)O[C@H]4[C@H]3O)c2n1
2.2

q: Which Ratio value belongs to [N-]=[N+]=Nc1nc2c(N)ncnc2n1[C@@H]1O[C@@H]2COP(=O)(O)O[C@H]2[C@H]1O ?
a: 0.68
